# Tested on: MDA-MB-468 cells
# ASSAY_COMMENT: ER stress / UPR marker immunoblots
# Type: cell-based, human
# STUDY_CONDITIONS: Homo sapiens, MDA-MB-468; 24 hours, mean of two determinations; read-out: EC50 for induction of GRP78/BiP

COMPOUND: N=C(Nc1ccc(I)cc1)NC1C2CC3CC(C2)CC1C3 (stereo not shown) [IPAG]
EXPERIMENTAL_TARGET: MDA-MB-468 cells
EC50: 1400 nM

====

# Test system: MDA-MB-468 cells
# ASSAY_COMMENT: ER stress / UPR marker immunoblots
# Type: cell-based, human
# STUDY_CONDITIONS: Homo sapiens, MDA-MB-468, 24 h, mean of two determinations, read-out: EC50 for phosphorylation of eIF2α (Ser51)

MOLECULE: N=C(Nc1ccc(I)cc1)NC1C2CC3CC(C2)CC1C3 (stereo not shown) [IPAG]
EC50 (nM): 2300
